test system: OVCAR-8 ovarian; assay: NCI tumour cell line growth inhibition, 48 h; in the data active = GI50 below about 0.43 µM; inactive = the rest
Write down the outcome that applies. Available outcomes: 1 (yes) for active, 0 (no) for inactive

compound | class assignment
Cc1cn2c(/C=C3/C(=O)Nc4c3ccc3ccccc43)c(C(F)(F)F)nc2s1 | 0 (no)

Request: What did the test return for Oc1c(C(Nc2ccccc2Br)c2ccccc2)ccc2cccnc12 (centres undefined) ?
Result: 0 (no)

Request: What about `COC(=O)c1c2c(c(C)[n+]([O-])c1C)C(=O)C=C(NCc1ccccc1)C2=O` ?
Result: 1 (yes)

Request: What about `O=C1CCc2c(sc3[nH]c(=S)n(-c4cc(C(F)(F)F)cc(C(F)(F)F)c4)c(=O)c23)C1` ?
Result: 0 (no)

Request: What about `COc1ccc2c(c1)[n+](=O)c(C(=O)c1cccs1)c(C(F)(F)F)n2[O-]` ?
Result: 0 (no)

Request: What about `CCOc1ccc2c(-c3ccnc(Nc4cc(OC)cc(C(F)(F)F)c4)n3)cnn2n1` ?
Result: 0 (no)

Request: What about `CN(C)C(=O)Nc1nc2cc(Cl)c(Cl)cc2[nH]1` ?
Result: 0 (no)

Request: What about `COC(=O)c1cc(-c2ccccc2)[nH]c1N/N=C/c1c(Cl)cccc1Cl` ?
Result: 0 (no)

Request: What about CNC(=O)NCC1OC(n2cnc3c(NC(=O)Nc4ccccc4)ncnc32)C(O[Si](C)(C)C(C)(C)C)C1O[Si](C)(C)C(C)(C)C (centres undefined) ?
Result: 0 (no)

###

test system: A549 NSCLC; test: NCI tumour cell line growth inhibition, 48 h
property: GI50

compound | GI50
COc1ccc(C(=O)Cn2c(C(=O)c3ccccc3)nc3ccccc32)cc1 | 6.05 µM
CCC(=O)N1C/C(=C/c2ccc(Cl)cc2)C(=O)/C(=C/c2ccc(Cl)cc2)C1 | 0.868 µM
CNC(=O)NCC1OC(n2cnc3c(NC(=O)Nc4ccccc4)ncnc32)C(O[Si](C)(C)C(C)(C)C)C1O[Si](C)(C)C(C)(C)C (stereo not given) | 2.9 µM
CN(C)c1ccc(Nc2c3ccccc3nc3ccccc23)cc1 | 0.425 µM

Request: Notebook: pull reported GI50 for A549 NSCLC, entry `COc1cc2c(cc1OC)-c1ncc3c(OC)ccc(OC)c3c1C2`
Result: 16.1 µM

Request: What about `COc1cc(-c2nc3ccccc3s2)ccc1OCCCCOc1cc2c(cc1OC)C(=O)N1CCC[C@H]1C=N2` ?
Result: 2.8 µM

Request: What about `CCOc1ccc2c(-c3ccnc(Nc4cc(OC)cc(C(F)(F)F)c4)n3)cnn2n1` ?
Result: > 14.7 µM

Request: What about `CCCCCCCCCCCC1=NC(C)(C)CN1C(C)(C)CO` ?
Result: 6.53 µM

Request: What about `N#Cc1nc(-c2ccc(F)cc2)oc1S(=O)(=O)N1CCCCC1` ?
Result: 6.9 µM

Request: What about `CN1CCN(Cc2c[nH]c3c2C(=O)c2c(c(O)c4ccccc4c2O)C3=O)CC1` ?
Result: 10.7 µM

###

tested on: HCT-116 colon; test: NCI tumour cell line growth inhibition, 48 h
property: GI50

# annotated cases, reported GI50 shown
compound | endpoint value
C=CC(=O)N1CCC(c2ccc(C(N)=O)c(-c3ccc(Oc4ccccc4)cc3)n2)CC1 | 35.9 µM
CN1CCN(Cc2c[nH]c3c2C(=O)c2c(c(O)c4ccccc4c2O)C3=O)CC1 | 1.92 µM
Oc1c(C(Nc2ccccc2Br)c2ccccc2)ccc2cccnc12 (centres undefined) | 3.13 µM
COC(C)(C)[C@@H](O)[C@H](O)C[C@H](C)C1=C2CC[C@@H]3[C@@]4(C)CC[C@@H](OC(C)=O)C(C)(C)[C@@H]4C[C@@H](OC4OC(COC(C)=O)C(O)C(O)C4O)[C@@]3(C)[C@]2(C)CC1 (some centres undefined) | 6.09 µM
O=C(NCCN1CCOCC1)OCc1nc2nc(Cl)nc(N3CCOCC3)c2[nH]1 | 2.41 µM

Request: Notebook: pull reported GI50 for HCT-116 colon, entry `c1ccc(-c2nn3c(c2-c2ccnc4cc(OCCN5CCOCC5)ccc24)CCC3)nc1`
Result: 31 µM

Request: What about `O=C1CCc2c(sc3[nH]c(=S)n(-c4cc(C(F)(F)F)cc(C(F)(F)F)c4)c(=O)c23)C1` ?
Result: 0.341 µM

Request: What about `Cc1ccc(/C=C/c2c(C(=O)/C=C/c3ccccc3)c(C)nc3ccccc23)cc1` ?
Result: 0.762 µM

Request: What about `COc1ccc2c(c1)nc(NNC(=O)c1cnccn1)c1cccn12` ?
Result: 0.143 µM

Origin of the recorded values: PubChem BioAssay (NCI)
